# STUDY TARGET: Recombinant human Cbl-b (aa 36-427) (Homo sapiens (Human), UniProt Q13191)
# Sequence (Q13191 36-427): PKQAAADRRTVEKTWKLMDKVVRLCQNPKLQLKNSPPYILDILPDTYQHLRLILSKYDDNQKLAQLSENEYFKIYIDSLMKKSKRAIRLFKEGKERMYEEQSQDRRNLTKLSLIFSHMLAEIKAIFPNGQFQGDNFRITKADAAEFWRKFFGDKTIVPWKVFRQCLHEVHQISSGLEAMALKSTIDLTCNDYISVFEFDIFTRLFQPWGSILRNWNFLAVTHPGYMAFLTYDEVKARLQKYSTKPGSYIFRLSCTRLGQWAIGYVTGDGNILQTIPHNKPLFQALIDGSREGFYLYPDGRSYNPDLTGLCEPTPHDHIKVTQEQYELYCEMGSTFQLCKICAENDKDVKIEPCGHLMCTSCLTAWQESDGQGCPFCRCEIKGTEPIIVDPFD
# ASSAY OVERVIEW: Cbl-b Biochemical Assay (TR-FRET)
# MEASUREMENT PARAMETERS: read-out: TR-FRET hCbl-b IC50
pIC50: −log10 of the molar value.
EXPERIMENTAL ENDPOINT: pIC50

Kindly indicate its recorded pIC50. Item: `Cn1cnnc1-c1cc(C#N)ccc1-c1cc(C2CC2)nc(N2Cc3c(cccc3C(F)(F)F)C2=O)c1`
≥ 6.70

Kindly indicate its recorded pIC50. Item: `Cn1cnnc1-c1cc(F)ccc1-c1cccc(N2Cc3ccc(CNCC4(O)CCCC4)cc3C2=O)c1`
≥ 6.70

Kindly indicate its recorded pIC50. Item: `Cn1cnnc1-c1cc(C#N)ccc1-c1cc(C2CC2)nc(N2Cc3c(cc(CO)cc3C(F)(F)F)C2=O)c1`
≥ 6.70

Kindly indicate its recorded pIC50. Item: `COC[C@@H]1CCCN1Cc1cc(F)c2c(c1)C(=O)N(c1cc(-c3ccc(C#N)cc3-c3nncn3C)cc(C3CC3)n1)C2`
≥ 6.70

Origin of measurements: patent US12325697B2
